B1: TPR 5TU (parent)
chain: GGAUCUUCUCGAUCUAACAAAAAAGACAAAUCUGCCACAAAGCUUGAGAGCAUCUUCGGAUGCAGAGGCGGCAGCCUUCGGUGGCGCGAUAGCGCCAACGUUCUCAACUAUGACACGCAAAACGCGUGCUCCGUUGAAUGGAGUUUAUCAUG

Variants of: B1
test method notes: polymerase ribozyme fitness, log enrichment relative to wild type (log ratio); higher = more active; in vitro selection for triplet polymerase activity
Fewer inactive variants are shown than the library holds.
polymerase ribozyme fitness (log ratio) overview

mutation_label="C85G G94U C118G" attribute_measured="polymerase ribozyme fitness (log ratio)" result=-0.928
mutation_label="U53G G71C G86A G143U" attribute_measured="polymerase ribozyme fitness (log ratio)" result="≤ -4.2"
mutation_label="A26U U148A" attribute_measured="polymerase ribozyme fitness (log ratio)" result=-4.11
mutation_label="A120U A121U U144G C149G" attribute_measured="polymerase ribozyme fitness (log ratio)" result=-3.46
mutation_label="A22C C27A U56A C85U C93A C99G A138U" attribute_measured="polymerase ribozyme fitness (log ratio)" result="≤ -4.2"

Consider the variant A20U U56A C76U G133A and give its measured polymerase ribozyme fitness (log ratio).
≤ -4.2

Consider the variant A22U G59A A66U G86A A120G A138G and give its measured polymerase ribozyme fitness (log ratio).
≤ -4.2

Consider the variant C10U A24U U33G A41G U56A C85U A91C and give its measured polymerase ribozyme fitness (log ratio).
≤ -4.2
